- Target under test: T1, recombinant mouse MAdCAM-1 (mouse, UniProt Q61826 22-365, limits assumed)
- T1 construct: also called mMAdCAM-1; mouse MAdCAM-Fc
- T1 sequence (looked up): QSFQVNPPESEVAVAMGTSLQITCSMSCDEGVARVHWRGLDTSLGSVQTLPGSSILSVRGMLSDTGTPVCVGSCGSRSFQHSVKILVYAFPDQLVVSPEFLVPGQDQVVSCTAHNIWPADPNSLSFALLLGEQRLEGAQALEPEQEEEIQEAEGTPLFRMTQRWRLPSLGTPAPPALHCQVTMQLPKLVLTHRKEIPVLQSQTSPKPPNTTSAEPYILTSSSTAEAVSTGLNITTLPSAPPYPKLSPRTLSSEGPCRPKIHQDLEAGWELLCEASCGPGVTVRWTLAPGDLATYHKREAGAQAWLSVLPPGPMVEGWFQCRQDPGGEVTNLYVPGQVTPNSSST
- Experimental details: Octet

- Binder: "MAdCAM Antibody Table 2 Clone 23 (antibody, human IgG1, V domains shown) VH: EVQLLESGGGLVQPGGSLRLSCAASGFTFDDYAMHWVRQAPGKGLEWVSYIDTSSSHLYYADSVKGRFTISRDNSKNTLYLQMNSLRAEDTAVYYCARDEAAAGYYGMDVWGQGTTVTVSS VL: DIQMTQSPSSLSASVGDRVTITCQAGQDISNYLNWYQQKPGKAPKLLIYDASNLETGVPSRFSGSGSGTDFTLTISSLQPEDFATYYCQQTYSTPITFGQGTKLEIK"
  binding result: "no binding"
- Binder: "MAdCAM Antibody Table 2 Clone 6 (antibody, human IgG1, V domains shown) VH: EVQLLESGGGLVQPGGSLRLSCAASGFTFNNYAFHWVRQAPGKGLEWVSRINSYGTSTTYADSVKGRFTISRDNSKNTLYLQMNSLRAEDTAVYYCAREGPVAGYWYFDLWGQGTLVTVSS VL: DIQMTQSPSSLSASVGDRVTITCRASQIIGTNLAWYQQKPGKAPKLLIYGASSLQSGVPSRFSGSGSGTDFTLTISSLQPEDFATYYCQQSYRLPFTFGQGTKVEIK"
  binding result: "no binding"
